Assignment: determine reported cytotoxicity at 10 µM for the given molecules.
# assay_details: Toxicity liver stage against HepG2, at 10uM
# Type: cell-based
# Set-up: test concentration 10 uM, cell line HepG2-A16-CD81EGFP
# assay_conditions: human, HepG2-A16-CD81EGFP cells; read-out: INHIBITION
Give bare numbers, in %.

Entry under review: O=C(NCCNC(=O)c1scnc1Cl)c1ccccc1 . Reported cytotoxicity at 10 µM?
8.45

Entry under review: O=C1CCC2(CCN(Cc3cscn3)CC2)CN1CC1CCCO1 (centres undefined) . Reported cytotoxicity at 10 µM?
-5.5

Entry under review: COc1ccc([C@@H]2CN(Cc3ccncc3)C[C@H]2c2cc[nH]n2)cc1 . Reported cytotoxicity at 10 µM?
-4.96

For every record below, what is its cytotoxicity at 10 µM?
1. CCN(CC)Cc1cn2c(n1)CN(C1CCOC1)CC2 (centres undefined)
2. CC(C(=O)N1CCN(c2ccc(F)cc2)CC1)n1ccnc1 (centres undefined)
3. COc1cccc2cc(CNCc3ccnc(N(C)C)c3)oc12

1. 4.12
2. 1.05
3. -6.87

###

# assay_details: Toxicity liver stage against HepG2, at 10uM
# Type: cell-based
# Set-up: test concentration 10 uM, cell line HepG2-A16-CD81EGFP
# assay_conditions: human, HepG2-A16-CD81EGFP cells; read-out: INHIBITION
Assignment: determine reported cytotoxicity at 10 µM for the given molecules.
One number for each entry, in %.

Below: 10 molecules and their reported cytotoxicity at 10 µM.
Entry under review: CCNS(=O)(=O)c1cnccc1N1CCN(CCO)CC1 . Reported cytotoxicity at 10 µM?
3.6

Entry under review: CC(C)Nc1cccc(CNC(=O)N2CCC[C@@H]2CO)c1 . Reported cytotoxicity at 10 µM?
1.96

Entry under review: CN(C)CC(=O)N1C[C@@H]2CC[C@H](Oc3ccccc3)[C@@H]2C1 . Reported cytotoxicity at 10 µM?
-26.4

Entry under review: O=C(NCCCn1cccn1)NCC(c1ccco1)N1CCCC1 (centres undefined) . Reported cytotoxicity at 10 µM?
-13.3

Entry under review: O=C(NCC1(O)CCOC1)NCC1(c2ccccc2Cl)CCC1 (centres undefined) . Reported cytotoxicity at 10 µM?
-50.8

Entry under review: CN1C(=O)CCN(C(=O)C2CCCCC2)c2ccccc21 . Reported cytotoxicity at 10 µM?
20.8

Entry under review: CCSCC(C)NCc1cn2ccccc2n1 (centres undefined) . Reported cytotoxicity at 10 µM?
-7.38

Entry under review: Cc1cccc2c1nc1n2[C@@H](CNC(=O)NC(C)C)COC1 . Reported cytotoxicity at 10 µM?
0.0962

Entry under review: CN(Cc1cccc(C#N)c1)c1ncc(C(N)=O)cc1Cl . Reported cytotoxicity at 10 µM?
1.33

Entry under review: CNC(=O)C1CCN(c2nccc(CCC(F)(F)F)n2)C1 (centres undefined) . Reported cytotoxicity at 10 µM?
-11.4

For every record below, what is its cytotoxicity at 10 µM?
1. COCCN1C(=O)CCC12CCC(NC(=O)c1cnccn1)CC2 (centres undefined)
2. COc1ccccc1OCCC(=O)N1CCCCC1c1nccs1 (centres undefined)

[-6.19, -15.7]

For every record below, what is its cytotoxicity at 10 µM?
1. O=S(=O)(c1ccccc1F)N1CCC(Oc2cccnn2)CC1
2. CS(=O)(=O)N1CCOC2(CCCN(c3ncc(F)cn3)C2)C1 (centres undefined)
3. CCn1ccnc1CN1CCN(CC(O)c2cccc(F)c2)CC1 (centres undefined)
4. CS(=O)(=O)c1ccc(CNCC2CCN(CCO)CC2)cc1
5. CCCc1cc(N(CCOC)CC(F)F)n2ncnc2n1

[0.388, 5.98, 0.272, -18.8, 4.81]

For every record below, what is its cytotoxicity at 10 µM?
1. O=C(NCC1CC(=O)N(CCc2ccccc2)C1)c1ccon1 (centres undefined)
2. Cn1ncc2c(=O)[nH]c(CN3CCc4sccc4C3)nc21
3. O=C(c1c[nH]c(=O)[nH]1)N1CCc2ccccc21
4. CC(c1ccncn1)N(C)S(=O)(=O)NCc1ccccc1 (centres undefined)
5. CC(CO)NCc1csc2c1CCCC2 (centres undefined)
6. Cc1ncccc1C(=O)N1CCC2(CCc3ccccc3C(=O)N2)C1 (centres undefined)

1: -5.22; 2: -19; 3: 81.9; 4: -81.5; 5: -11.3; 6: 4.28

###

Assignment: determine reported cytotoxicity at 10 µM for the given compounds.
# assay_details: Toxicity liver stage against HepG2, at 10uM
# Type: cell-based
# Design: test concentration 10 uM, cell line HepG2-A16-CD81EGFP
# assay_conditions: human, HepG2-A16-CD81EGFP cells; read-out: INHIBITION
Answers are plain numbers, in %.

Entry under review: CC1(C)CN(C(CNC2=NCCN2)c2ccc(Cl)cc2)CCO1 (stereo unspecified) . Reported cytotoxicity at 10 µM?
8

Entry under review: c1cc(CN2CCC(n3cc(CN4CCCC4)nn3)CC2)cs1 . Reported cytotoxicity at 10 µM?
-6.26

Entry under review: COc1ccc(C2CCCN2S(=O)(=O)N(C)C)cc1 (stereo unspecified) . Reported cytotoxicity at 10 µM?
5.08

Entry under review: CCCn1c(C)c(CC(=O)N(C)CCO)c2c1CC(C)(C)CC2=O . Reported cytotoxicity at 10 µM?
-3.64

Entry under review: Cc1ccc(CNC2CC3(CCN(CCO)CC3)c3ccccc32)s1 (stereo unspecified) . Reported cytotoxicity at 10 µM?
-108

Entry under review: CC(Oc1ccccc1C#N)C(=O)NC1CC1 (stereo unspecified) . Reported cytotoxicity at 10 µM?
6.21

Entry under review: O=C(CCNS(=O)(=O)c1ccc(Cl)cc1)NCc1ccoc1 . Reported cytotoxicity at 10 µM?
-11.8

Entry under review: CC(Nc1cccc2c1OCCO2)C(=O)NC(N)=O (stereo unspecified) . Reported cytotoxicity at 10 µM?
2.76

Entry under review: O=C(C1CCOCC1)N1CC[C@@H](N2CCOCC2)[C@@H]1Cc1ccccc1 . Reported cytotoxicity at 10 µM?
-77.2

Entry under review: CC(C(=O)NCCc1cccs1)N1CCC(n2ccnc2)CC1 (stereo unspecified) . Reported cytotoxicity at 10 µM?
-16

For every record below, what is its cytotoxicity at 10 µM?
1. O=C1[C@H]2CN(Cc3ccc(F)cc3)C[C@H]2CN1CCN1CCCC1
2. O=C(NCc1cccnc1)[C@@H]1CC[C@@H]2[C@@H](CCN2c2ncc(F)cn2)O1

[-13.2, -44.6]

For every record below, what is its cytotoxicity at 10 µM?
1. CC(Cn1cccn1)NCc1cnc(N2CCCC2)nc1 (stereo unspecified)
2. CC(=O)N1CCC(c2nn(C)c(=O)n2-c2ccccc2)CC1
3. N#Cc1cccc(OCC(=O)N(Cc2ccsc2)C2CC2)c1
4. CN1CC[C@]2(CN(CC3CCOCC3)C[C@H]2c2ccccc2)C1=O

[-13, -2.05, -50.2, -1.18]

For every record below, what is its cytotoxicity at 10 µM?
1. O=C(c1cccnc1)N1CCc2[nH]nc(Nc3ccccc3)c2C1
2. CC(=O)N[C@@H](CC(C)C)C(=O)N1CCC(n2cc(CO)nn2)CC1
3. COCCNc1ncc(-c2cccc(OC)c2)c(-c2nccn2C)n1

6.83
9.56
7.49

###

# assay_details: Toxicity liver stage against HepG2, at 10uM
# Type: cell-based
# Parameters: test concentration 10 uM, cell line HepG2-A16-CD81EGFP
# assay_conditions: human, HepG2-A16-CD81EGFP cells; read-out: INHIBITION
assay_endpoint: cytotoxicity at 10 µM (%)
One number for each entry, in %.

Below: 5 compounds and their reported cytotoxicity at 10 µM.
Entry under review: CN(CCCc1ccccc1)Cc1nc2c(cnn2C)c(=O)[nH]1 . Reported cytotoxicity at 10 µM?
-9.56

Entry under review: c1cncc(Cc2nnc3n2CCN(CC2CCOC2)CC3)c1 (stereo unspecified) . Reported cytotoxicity at 10 µM?
-2.11

Entry under review: Cc1nonc1CN1CC[C@@](O)(C2CCOCC2)[C@H](C)C1 . Reported cytotoxicity at 10 µM?
7.31

Entry under review: CC(C)NC(=O)c1cccc(NC(=O)CCCc2nc(C(C)C)no2)c1 . Reported cytotoxicity at 10 µM?
5.51

Entry under review: CN(C(=O)NC1CC1)C1CCN(c2ccc(Cl)cc2)CC1 . Reported cytotoxicity at 10 µM?
-8.39

# context switch: different compound, same cytotoxicity at 10 µM
Entry under review: O=C(NC1CCN(c2ncccn2)CC1)c1cc2c(cc1O)CCCC2 . Reported cytotoxicity at 10 µM?
8

###

# assay_details: Toxicity liver stage against HepG2, at 10uM
# Type: cell-based
# Set-up: test concentration 10 uM, cell line HepG2-A16-CD81EGFP
# assay_conditions: human, HepG2-A16-CD81EGFP cells; read-out: INHIBITION
assay_endpoint: cytotoxicity at 10 µM (%)
Give bare numbers, in %.

Below: 10 compounds and their reported cytotoxicity at 10 µM.
Entry under review: CCOC(=O)CCCN1CCCC(C(=O)Nc2ccc(Cl)cn2)C1 (configuration not stated) . Reported cytotoxicity at 10 µM?
2.69

Entry under review: Cc1csc(N2CCN(C(=O)CCCNc3ncccn3)CC2)n1 . Reported cytotoxicity at 10 µM?
-16.3

Entry under review: Cc1noc(C)c1CC(=O)NCCc1cccs1 . Reported cytotoxicity at 10 µM?
-0.651

Entry under review: Cn1cc(C[C@H]2[C@H](O)CCN2C(=O)C2CCCC2)cn1 . Reported cytotoxicity at 10 µM?
-3.49

Entry under review: CC(CNC(=O)N1CCC(CO)CC1)Cc1cccs1 (configuration not stated) . Reported cytotoxicity at 10 µM?
-8.52

Entry under review: CS(=O)(=O)N1CCc2ncc(CNC(=O)C3CCC3)n2CC1 . Reported cytotoxicity at 10 µM?
10.9

Entry under review: O=C(NCCNS(=O)(=O)c1cccc(Cl)c1)C1CCCO1 (configuration not stated) . Reported cytotoxicity at 10 µM?
11.5

Entry under review: Cc1c(C2CC(=O)Nc3c2cnn3C(C)C)cnn1C (configuration not stated) . Reported cytotoxicity at 10 µM?
-6.72

Entry under review: CN(CCc1noc(C2CC2)n1)C(=O)CCc1cc2n(n1)CCCNC2 . Reported cytotoxicity at 10 µM?
-0.645

Entry under review: CCOCc1nc2c(c(N3CC=CC3)n1)CCN(CC1CC1)CC2 . Reported cytotoxicity at 10 µM?
-21.2

For every record below, what is its cytotoxicity at 10 µM?
1. CC(C)OCCN1CCC(C(=O)c2cc(F)ccc2F)CC1
2. CCOc1ncccc1CNC(=O)Nc1ccc(N(C)C)nc1

[-8.63, -11.8]
